The reported measurements were obtained from patent US11420956B2.

Below, each entry is listed alongside its reported DC50.
- MEASUREMENT TARGET: androgen receptor (AR) (Homo sapiens, UniProt P10275, T878A)
- Construct: endogenous in cells; host or cells: LNCAP
- TEST NAME: AR degradation in LNCAP cells (Western blot)
- Format: cell-based
- RUN CONDITIONS: 24 hours after administration
- Procedure: LNCAP, VCAP and 22Rv1 cells were plated in 24-well plates at 1.5×10E5 cells/well in the RPMI growth medium containing 10% FBS and 1% Penicillin Streptomycin, and then incubated at 37° C. overnight. The following day, the test compound was administered to the cells by using 1000× compound stock solution prepared in DMSO at various concentrations. After administration of the compound, the cells were then incubated at 37° C. for 24 hours. […] The bands were quantified using Image Studio™ Software (Licor). […]
ENDPOINT NAME: DC50

compound="C[C@H]1CN(C(=O)Nc2ccc(N3CCC(CN4CCN(c5ccc6c(c5)C(=O)N(C5CCC(=O)NC5=O)C6=O)CC4)CC3)nc2)CCN1c1ccc(C#N)c2ncccc12 (stereo partly drawn)" result="> 100 nM"
compound="C[C@@H]1CN(c2ccc(C#N)c3ncccc23)[C@@H](C)CN1C(=O)Nc1cnc(N2CCC(CN3CCN(c4cc5c(cc4F)C(=O)N(C4CCC(=O)NC4=O)C5=O)CC3)CC2)nc1 (stereo partly drawn)" result="> 100 nM"
compound="C[C@@H]1CN(c2ccc(C#N)c(C(F)(F)F)c2)[C@@H](C)CN1C(=O)Nc1cnc(N2CCC(CN3CCN(c4ccc5c(c4)C(=O)N(C4CCC(=O)NC4=O)C5=O)CC3)CC2)nc1 (stereo partly drawn)" result="≤ 10 nM"

###

- MEASUREMENT TARGET: androgen receptor (AR) (Homo sapiens, UniProt P10275, T878A)
- Construct: endogenous in cells; host or cells: LNCAP
- TEST NAME: AR degradation in LNCAP cells (Western blot)
- Assay type: cell-based
- RUN CONDITIONS: 24 hours after administration
ENDPOINT NAME: DC50

compound="C[C@@H]1CN(c2ccc(C#N)c3ncccc23)[C@@H](C)CN1C(=O)Nc1ccc(N2CCC(CN3CCN(c4ccc5c(c4)C(=O)N(C4CCC(=O)NC4=O)C5=O)CC3)CC2)nc1 (some centres unmarked) [Compound 2-9]" endpoint_name=DC50 result="> 100 nM"
compound="COc1cc(N2C[C@@H](C)N(C(=O)Nc3ccc(N4CCC(CN5CCN(c6ccc7c(c6)CN([C@H]6CCC(=O)NC6=O)C7=O)CC5)CC4)nc3)C[C@@H]2C)ccc1C#N [Compound 1-33]" endpoint_name=DC50 result="≤ 10 nM"
compound="C[C@@H]1CN(c2ccc(C#N)c(C(F)(F)F)c2)[C@@H](C)CN1C(=O)Nc1ccc(N2CCC(CN3CCN(c4ccc5c(c4)CN([C@H]4CCC(=O)NC4=O)C5=O)CC3)CC2)nc1 [Compound 1-43]" endpoint_name=DC50 result="≤ 10 nM"
compound="C[C@H]1CN(C(=O)Nc2cnc(N3CCC(CN4CCN(c5ccc6c(c5)C(=O)N(C5CCC(=O)NC5=O)C6=O)CC4)CC3)nc2)CCN1c1ccc(C#N)c2ncccc12 (some centres unmarked) [Compound 2-16]" endpoint_name=DC50 result="> 100 nM"
compound="C[C@@H]1CN(c2ccc(C#N)c(Cl)c2)[C@@H](C)CN1C(=O)Nc1ccc(N2CCC(CN3CCN(c4ccc5c(c4)CN([C@H]4CCC(=O)NC4=O)C5=O)CC3)CC2)c(F)c1 [Compound 1-46]" endpoint_name=DC50 result="≤ 10 nM"
compound="CC(C)N(CC1CCN(c2ccc(NC(=O)N3C[C@H](C)N(c4ccc(C#N)c(Cl)c4)C[C@H]3C)cn2)CC1)C1CC(Oc2ccc3c(c2)C(=O)N(C2CCC(=O)NC2=O)C3=O)C1 (some centres unmarked) [Compound 1-11]" endpoint_name=DC50 result="≤ 10 nM"
compound="COc1cc(N2C[C@@H](C)N(C(=O)Nc3ccc(N4CCC(CN5CCN(c6cc7c(cc6F)C(=O)N([C@H]6CCC(=O)NC6=O)C7)CC5)CC4)c(F)c3)C[C@@H]2C)ccc1C#N [Compound 1-55]" endpoint_name=DC50 result="≤ 10 nM"
compound="C[C@@H]1CN(c2ccc(C#N)c3ncccc23)[C@@H](C)CN1C(=O)Nc1ccc(N2CCC(CN3CCN(c4ccc5c(c4)CN([C@H]4CCC(=O)NC4=O)C5=O)CC3)CC2)nc1 [Compound 2-11]" endpoint_name=DC50 result="> 100 nM"

###

- MEASUREMENT TARGET: androgen receptor (AR) (Homo sapiens, UniProt P10275, T878A)
- Construct: endogenous in cells; host or cells: LNCAP
- Sequence (P10275 1-920 T878A): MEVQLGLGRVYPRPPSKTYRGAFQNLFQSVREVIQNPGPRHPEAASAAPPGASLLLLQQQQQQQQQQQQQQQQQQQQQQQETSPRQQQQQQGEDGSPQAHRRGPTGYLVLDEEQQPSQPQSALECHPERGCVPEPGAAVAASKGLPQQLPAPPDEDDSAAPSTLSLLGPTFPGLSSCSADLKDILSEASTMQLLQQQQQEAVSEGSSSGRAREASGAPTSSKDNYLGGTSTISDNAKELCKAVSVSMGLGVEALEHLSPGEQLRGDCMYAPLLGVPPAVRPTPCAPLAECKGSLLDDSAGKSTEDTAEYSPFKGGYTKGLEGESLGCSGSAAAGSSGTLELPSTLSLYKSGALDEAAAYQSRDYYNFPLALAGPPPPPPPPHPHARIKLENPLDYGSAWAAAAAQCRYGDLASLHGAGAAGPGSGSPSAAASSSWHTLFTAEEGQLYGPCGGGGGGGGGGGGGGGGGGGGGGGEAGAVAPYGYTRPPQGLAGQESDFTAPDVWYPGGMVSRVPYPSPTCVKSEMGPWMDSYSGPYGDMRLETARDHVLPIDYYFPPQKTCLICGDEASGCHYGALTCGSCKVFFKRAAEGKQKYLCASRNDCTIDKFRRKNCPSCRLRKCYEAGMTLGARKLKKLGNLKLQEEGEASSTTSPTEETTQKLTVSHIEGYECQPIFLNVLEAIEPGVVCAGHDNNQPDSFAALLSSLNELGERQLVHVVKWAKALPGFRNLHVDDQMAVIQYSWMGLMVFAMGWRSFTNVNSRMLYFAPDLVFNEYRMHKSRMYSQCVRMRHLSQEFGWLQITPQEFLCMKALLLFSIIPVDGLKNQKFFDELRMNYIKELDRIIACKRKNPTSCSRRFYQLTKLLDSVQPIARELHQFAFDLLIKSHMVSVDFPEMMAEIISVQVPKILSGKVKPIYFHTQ
- TEST NAME: AR degradation in LNCAP cells (Western blot)
- Assay type: cell-based
- RUN CONDITIONS: 24 hours after administration
ENDPOINT NAME: DC50

molecule="C[C@@H]1CN(c2ccc(C#N)c(Cl)c2)[C@@H](C)CN1C(=O)Nc1ccc(N2CCC(CN(C)C3CC(Oc4ccc5c(c4)C(=O)N(C4CCC(=O)NC4=O)C5=O)C3)CC2)nc1 (some centres unmarked)" endpoint_name=DC50 result="≤ 10 nM"
molecule=C[C@@H]1CN(c2ccc(C#N)c(Cl)c2)[C@@H](C)CN1C(=O)Nc1ccc(N2CCC(CN3CCN(c4cc5c(cc4F)C(=O)N([C@H]4CCC(=O)NC4=O)C5)CC3)CC2)c(F)c1 endpoint_name=DC50 result="≤ 10 nM"
molecule="C[C@@H]1CN(c2ccc(C#N)c(Cl)c2)[C@@H](C)CN1C(=O)Nc1ccc(N2CCC(CN3CCN(c4ccc5c(c4)C(=O)N(C4CCC(=O)NC4=O)C5=O)CC3)CC2)c(F)c1 (some centres unmarked)" endpoint_name=DC50 result="≤ 10 nM"
molecule="C[C@@H]1CN(c2ccc(C#N)c(Cl)c2)[C@@H](C)CN1C(=O)Nc1ccc(N2CCC(CN3CCN(c4ccc5c(c4)C(=O)N(C4CCC(=O)NC4=O)C5=O)CC3)CC2)nc1 (some centres unmarked) [Compound 1-13]" endpoint_name=DC50 result="≤ 10 nM"
molecule="C[C@@H]1CN(c2ccc(C#N)c(C(F)(F)F)c2)[C@@H](C)CN1C(=O)Nc1ccc(N2CCC(CN3CCN(c4ccc5c(c4)C(=O)N(C4CCC(=O)NC4=O)C5=O)CC3)CC2)c(F)c1 (some centres unmarked)" endpoint_name=DC50 result="≤ 10 nM"
molecule=C[C@@H]1CN(c2ccc(C#N)c3ncccc23)[C@@H](C)CN1C(=O)Nc1cc(F)c(N2CCC(CN3CCN(c4ccc5c(c4)CN([C@H]4CCC(=O)NC4=O)C5=O)CC3)CC2)cc1F endpoint_name=DC50 result="> 100 nM"
molecule=C[C@@H]1CN(c2ccc(C#N)c(Cl)c2)[C@@H](C)CN1C(=O)Nc1cnc(N2CCC(CN3CCN(c4ccc5c(c4)CN([C@H]4CCC(=O)NC4=O)C5=O)CC3)CC2)nc1 endpoint_name=DC50 result="≤ 10 nM"
molecule="C[C@@H]1CN(c2ccc(C#N)c(Cl)c2)[C@@H](C)CN1C(=O)Nc1ccc(N2CCC(CN3CCN(c4ccc5c(c4)C(=O)N(C4CCC(=O)NC4=O)C5=O)CC3)CC2)cc1F (some centres unmarked)" endpoint_name=DC50 result="≤ 10 nM"
molecule="CC(C)N(CC1CCN(c2ccc(NC(=O)N3C[C@H](C)N(c4ccc(C#N)c(Cl)c4)C[C@H]3C)cn2)CC1)C1CC(Oc2ccc3c(c2)C(=O)N(C2CCC(=O)NC2=O)C3=O)C1 (some centres unmarked) [Compound 1-12]" endpoint_name=DC50 result="10 to 100 nM"
molecule="COc1cc(N2C[C@@H](C)N(C(=O)Nc3ccc(N4CCC(CN5CCN(c6ccc7c(c6)C(=O)N(C6CCC(=O)NC6=O)C7=O)CC5)CC4)nc3)C[C@@H]2C)ccc1C#N (some centres unmarked)" endpoint_name=DC50 result="≤ 10 nM"
molecule="C[C@@H]1CN(c2ccc(C#N)c(Cl)c2)[C@@H](C)CN1C(=O)Nc1cnc(N2CCC(CN3CCN(c4ccc5c(c4)C(=O)N(C4CCC(=O)NC4=O)C5=O)CC3)CC2)nc1 (some centres unmarked) [Compound 1-20]" endpoint_name=DC50 result="≤ 10 nM"
molecule="C[C@@H]1CN(c2ccc(C#N)c3ncccc23)[C@@H](C)CN1C(=O)Nc1cnc(N2CCC(CN3CCN(c4ccc5c(c4)C(=O)N(C4CCC(=O)NC4=O)C5=O)CC3)CC2)nc1 (some centres unmarked)" endpoint_name=DC50 result="> 100 nM"
molecule="COc1cc(N2C[C@@H](C)N(C(=O)Nc3cnc(N4CCC(CN5CCN(c6ccc7c(c6)C(=O)N(C6CCC(=O)NC6=O)C7=O)CC5)CC4)nc3)C[C@@H]2C)ccc1C#N (some centres unmarked)" endpoint_name=DC50 result="≤ 10 nM"
molecule="C[C@@H]1CN(c2ccc(C#N)c3ncccc23)[C@@H](C)CN1C(=O)Nc1cc(F)c(N2CCC(CN3CCN(c4ccc5c(c4)C(=O)N(C4CCC(=O)NC4=O)C5=O)CC3)CC2)cc1F (some centres unmarked)" endpoint_name=DC50 result="> 100 nM"
